Recorded values, source paper PMC9482650.

- target desc: GORASP1, Q9BQQ3
- Sequence (Q9BQQ3 1-208): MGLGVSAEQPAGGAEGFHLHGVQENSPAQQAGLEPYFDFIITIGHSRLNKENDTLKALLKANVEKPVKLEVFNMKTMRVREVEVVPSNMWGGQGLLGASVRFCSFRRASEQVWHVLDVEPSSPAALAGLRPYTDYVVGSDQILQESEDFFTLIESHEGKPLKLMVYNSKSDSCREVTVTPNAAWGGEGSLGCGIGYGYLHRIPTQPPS
- assay details: holdup assay
- Design: key: below the threshold = too weak to quantify, mostly under pKd 3.1 to 4
- condition notes: plain residues with an end cap or a label only (N-terminal biotin on a linker: ado-ado)
metric: pKd

>  <binder>
TKDKVQETQI [LRRC4, Q9HBW1]

>  <reported>
below the threshold

$$$$
>  <binder>
THREVKFTSL [CD46, P15529]

>  <reported>
below the threshold

$$$$
>  <binder>
NISARRFTLC [FAM167B, Q9BTA0]

>  <reported>
3.9

$$$$
>  <binder>
EFKQTSSFLV [JAM1, Q9Y624]

>  <reported>
4.37

$$$$
>  <binder>
LLQEEWETVM [PTH1R, Q03431]

>  <reported>
4.31

$$$$
>  <binder>
GDSSRKEYFI [GYPC, P04921]

>  <reported>
4.33

$$$$
>  <binder>
RGKNRRQSIF [CDK18, Q07002]

>  <reported>
below the threshold

$$$$
>  <binder>
GQNMTVSVVI [PRLHR, P49683]

>  <reported>
4.28

$$$$
